Listed compounds paired with reported z-score
protocolDescription: fission yeast growth modulation, primary screen, strain 972, OD600, 24 h, no modulator (AID 1090);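 note: basal condition with compound alone and no growth modifier present; test concentration not given here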
experimentalSetup: S. pombe 972 growth, higher = more signal, called active from +8 up or from −8 down
I'd appreciate a reply containing only the number, no unit.

Example results:
compound: C#CCN(C(/C=C/c1ccccc1)CO)C(C(=O)O)c1ccccc1 (stereo unspecified)
z-score: -1.13
--
compound: CN1C(=O)C2C=CC(C(O)c3ccccn3)N(Nc3ccccc3)C2C1=O (stereo unspecified)
z-score: 0.632
--
compound: CC(C)C(O)C1C=CC2C(=O)N(c3ccccc3)C(=O)C2N1Nc1ccc(C#N)cc1 (stereo unspecified)
z-score: 0.349

Req: Field request: z-score | item: `Cc1ccc(S[C@]2(C(=O)NC3CC3)CC(=O)N(C3CCCCC3)[C@@H]2c2ccc(CO)cc2I)cc1`
Resp: 0.532

Req: And then `CC(C)CNC(=O)[C@@]1(c2ccc([N+](=O)[O-])cc2)CC(=O)N(CC23CC4CC(CC(C4)C2)C3)[C@@H]1c1ccc(CO)cc1` , what is it?
Resp: -1.1

Req: And then `O=c1cccc(C=Cc2ccccc2)o1` , what is it?
Resp: -1.06

Req: And then `COCCCNC(=O)[C@@]1(CCC(=O)OC(C)(C)C)N=C(c2ccc(OCCCO)cc2)O[C@H]1c1ccccc1CN=[N+]=[N-]` , what is it?
Resp: -0.738

Req: And then `CCCCC=C[C@@H](NC(=O)c1ccco1)c1ccccc1` , what is it?
Resp: 1

Req: And then CCOC(=O)C1=CCC(c2ccc([N+](=O)[O-])cc2)N(S(=O)(=O)c2ccc(C)cc2)C1 (stereo unspecified) , what is it?
Resp: 2.26

Req: And then CC(C)N1CC=CC23O[C@@H]4C=CCOC(=O)[C@@H]4[C@H]2C(=O)N(CCO)[C@@H]3C1=O (stereo partly specified) , what is it?
Resp: 0.24

Req: And then `C=CCNC(=O)[C@@H]1[C@H]2C(=O)O[C@H](c3ccccc3)[C@H](c3ccccc3)N2[C@H](c2ccc(O)cc2)[C@@]12C(=O)N(C(=O)OCCOC)c1ccccc12` , what is it?
Resp: 0.625

Req: And then `NC(=O)NCC#Cc1ccc2c(c1)[C@]1(C(=O)N2)[C@H](C(=O)N2CCCCCCC2)[C@H]2C(=O)O[C@H](c3ccccc3)[C@H](c3ccccc3)N2[C@@H]1c1ccc(OCCO)cc1` , what is it?
Resp: 0.562

Req: And then O=C1OCCC=C[C@H]2OC34C=CCN(Cc5ccccc5)C(=O)[C@H]3N(CCCCCO)C(=O)[C@@H]4C12 (stereo partly specified) , what is it?
Resp: -0.0407

Req: And then `COCCOC(=O)N1C(=O)[C@@]2(c3cc(C#CCCO)ccc31)[C@H](c1ccccc1OCCO)N1[C@H](c3ccccc3)[C@H](c3ccccc3)OC(=O)[C@H]1[C@@H]2C(=O)N1CCN(c2ncccn2)CC1` , what is it?
Resp: 1.08

Req: And then `C[C@]1(C(=O)NCc2ccccc2)c2ccccc2C(=O)N(Cc2ccc(OC(F)(F)F)cc2)[C@H]1c1ccc(CO)cc1` , what is it?
Resp: -0.935

Req: And then O=C1C2C=CC(C(O)c3ccc(-c4ccccc4)s3)N(n3cnnc3)C2C(=O)N1Cc1ccccc1 (stereo unspecified) , what is it?
Resp: -11.7
